meta.source: PubChem BioAssay

assay: antimalarial activity against Dd2 strain (AID 2302);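 further: 0% = DMSO untreated growth and 100% = chloroquine plus artemisinin killed control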; settings: P. falciparum Dd2 in RBCs, LDH growth readout, 72 h; at 2 µM
Calls of active or inactive are those of the source.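 How the source made its calls: active means growth inhibition above 50% at the single 2 µM test dose, taken to imply half-maximal potency below 2 µM; inactive means the rest.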
Outcome field: choose from active, inactive

Observe how each entry below is paired with its result.
| compound | discrete_label |
| --- | --- |
| COC(=O)c1cccc(CNCc2ccc(-c3ccc(-c4nc5ccccc5[nH]4)s3)cc2)c1 | active |
| CC(C)N1CCN(CCCCNc2c3ccccc3nc3ccccc23)CC1 | inactive |
| C[C@H](Cc1ccc(OCCCCCCOc2ccc(C[C@@H](C)NC(=O)[C@H](O)c3cccc(Cl)c3)cc2)cc1)NC[C@H](O)c1cccc(Cl)c1 | active |
| Cc1ccccc1NC1=NC(=S)N(c2cccc(C(F)(F)F)c2)C12CCC(C(C)(C)C)CC2 (stereo not given) | inactive |
| CCc1cc(OC)ccc1C1CCN(CCCCNC(=O)c2ccc(NC(=O)c3ccc(Cl)cc3)cc2)CC1 | active |

Q. I would be grateful if you could indicate the recorded call for Cc1cc(=O)[nH]c(-n2nc(C)cc2NC(=O)C(c2ccccc2)c2ccccc2)n1 .
A. active

Q. I would be grateful if you could indicate the recorded call for C=CCc1c(C(=O)NCC23CC4CC(CC(C4)C2)C3)[nH]c2ccccc2c1=O .
A. active

Q. I would be grateful if you could indicate the recorded call for COc1cc(SC)ccc1C(=O)N1CC(C)CC(C)C1 (stereo not given) .
A. active

Q. I would be grateful if you could indicate the recorded call for O=C(/C=C/c1ccc(Cl)c(Cl)c1)NCCCCCN1CCCC(CNC(=O)/C=C/c2ccccc2)C1 (stereo not given) .
A. inactive

Q. I would be grateful if you could indicate the recorded call for NC1CCN(Cc2ccc(-c3ccc(-c4nc5ccccc5[nH]4)s3)cc2)C1 (stereo not given) .
A. active

Q. I would be grateful if you could indicate the recorded call for CC(=NNC(=S)NCCc1ccccc1)c1ccccn1 .
A. active

Q. I would be grateful if you could indicate the recorded call for O=C(Nc1cccc(CN2CCCN(Cc3cccnc3)CC2)c1)c1cc2ccccc2s1 .
A. inactive

Q. I would be grateful if you could indicate the recorded call for COc1ccccc1Cn1ccnc1SCC(=O)Nc1cc(C(F)(F)F)ccc1Cl .
A. active

Q. I would be grateful if you could indicate the recorded call for Cc1cccc(CN2CCC(Oc3ccc(NC(=O)c4cccs4)cc3Cl)CC2)n1 .
A. active

Q. I would be grateful if you could indicate the recorded call for c1cc(CN2CCN(CCN3CCOCC3)CC2)cc(-c2ccc(-c3nc4ccccc4[nH]3)cc2)c1 .
A. active

Q. I would be grateful if you could indicate the recorded call for N#Cc1ccc(C=NNc2nc3ccccc3[nH]2)cc1 .
A. active

Q. I would be grateful if you could indicate the recorded call for CCCn1c(SCC(=O)Nc2cc(C(F)(F)F)ccc2Cl)n[nH]c1=O .
A. active

Q. I would be grateful if you could indicate the recorded call for Cc1ccc(C)c(NC(=O)Nc2ccc(C)c(-c3ccc(C(=O)Nc4ccncc4)cc3)c2)c1 .
A. active

Q. I would be grateful if you could indicate the recorded call for Cc1cccc2[nH]c(-c3ccc(-c4cccc(NC(=O)C(C)CN5CCN(C)CC5)c4)cc3)nc12 (stereo not given) .
A. active

Q. I would be grateful if you could indicate the recorded call for COc1cccc(OC)c1OCCCON1C(N)=NC(N)=NC1(C)C .
A. active

----------
assay: human hepatoma cell viability loss – ATP luminescence, cytotoxicity control for P. falciparum antimalarial project, primary screen (AID 2303); conditions: HepG2 viability, 24-48 h, at 10 µM, active compounds read high;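 further: 0% = DMSO wells and 100% = digitonin-killed cells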
# label = 1 if inhibition < 20% else -1

Observe how each entry below is paired with its result.
| substance_smiles | discrete_label |
| --- | --- |
| O=C(Nc1cccc(-c2cccc(-c3nc4ccc(F)cc4[nH]3)c2)c1)c1ccncc1 | -1 |
| COc1ccc2nc(C)cc(NN=Cc3cccc(Cl)c3)c2c1 | 1 |
| CCCCCCc1cc(Oc2c(I)cc(C[C@H](N)C(=O)O)cc2I)ccc1O | 1 |
| O=C(/C=C/c1ccc(Cl)c(Cl)c1)NCCCCCN1CCC(NC(=O)Nc2cccc(Cl)c2F)CC1 | -1 |

Q. Criterion: inhibition strictly below 20%. Is it met by Cc1ccc(O)c(C(=O)c2cnc3c(c2)c(-c2ccc(F)cc2)c(C#N)c(=O)n3C)c1 ?
A. 1

----------
biological target: L-lactate dehydrogenase (Plasmodium falciparum (isolate CDC / Honduras)); assay: PfLDH activity inhibition – cell lysate, 3D7 strain, counter-screen for P. falciparum growth inhibition project (AID 2304);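 further: 0% = vehicle and 100% = reference inhibitor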; conditions: P. falciparum 3D7 crude extract, LDH APAD/NBT absorbance; at 2 µM; active compounds read high
reported_property: inhibition (%)
One number for each entry, in %.

| compound | experimental_target | observed_value |
| --- | --- | --- |
| OC(COc1ccccc1-c1nc2ccccc2o1)CN1CCCN(CCc2ccccc2)CC1 (centres undefined) | L-lactate dehydrogenase (Plasmodium falciparum (isolate CDC / Honduras)) | -5 |

Give me inhibition for each of these compounds, listed below.
1. Cc1ccc2c(Cl)c(C(=O)N3CC(C)OC(C)C3)sc2c1 (centres undefined)
2. CNC(=O)c1ccc2nc(C3CC3)n(CC3CCN(S(=O)(=O)c4cccc(Cl)c4)CC3)c2c1
3. FC(F)(F)c1ccc2c(NN=Cc3cccc(Cl)c3)ccnc2c1

A.
[3, 3, -3]

Give me inhibition for each of these compounds, listed below.
1. CC1CCCCN1CCCNC(=O)c1cccc(-c2cc3cc(Cl)c(Cl)cc3[nH]2)c1 (centres undefined)
2. COC(=O)c1cccc(C#CCCOCCCCCCNC[C@H](O)c2cc(Cl)c(N)c(Cl)c2)c1
3. Cc1cc(NN=Cc2ccc(Cl)cc2)c2cc(F)ccc2n1
4. Cc1ccccc1CN1CCCN(Cc2ccc(C(=O)Nc3ccc(Cl)cc3)cc2)CC1
5. COc1ccc(-c2cccc(NC(=O)c3cccc(C#N)c3)c2)cc1CN1CCCN(C)CC1
6. CCNc1cc(C(=O)N[C@@H](Cc2ccccc2)[C@H](O)CNC2CCSCC2)cc(N2CCCC2=O)c1
7. Cc1ccccc1C1CCN(C2CCC(NC(=O)/C=C/c3c(F)ccc(F)c3F)CC2)CC1 (centres undefined)
8. O=C(Nc1cccc(C(F)(F)F)c1)c1ccc(S(=O)(=O)NCC2CCCN2CC2CCCCC2)cc1 (centres undefined)

A.
-2
-3
2
3
-4
-1
1
-5

Give me inhibition for each of these compounds, listed below.
1. O=C(/C=C/c1c[nH]c2ccccc12)NCCCCCN1CCC(c2c[nH]c3ccccc23)CC1
2. C[C@@H]1CN(c2cnn(C/C=C/c3ccc(NC(=O)c4ccc([N+](=O)[O-])cc4)cc3)c(=O)c2Cl)C[C@H](C)N1
3. COc1ccc2ccc(F)c(CC(=O)N3CCOC(CNCc4cccc(-c5ccsc5)n4)C3)c2n1 (centres undefined)
4. CCc1cc([C@H]2O[C@@H](n3cnc4c(NCC(c5ccccc5)c5ccccc5)nc(NCCNc5ccccn5)nc43)[C@H](O)[C@@H]2O)on1
5. COc1cccc2cc(C(=O)N[C@@H](CC(C)C)C(=O)N[C@H](/C=N/NC(=O)OC(C)(C)C)Cc3ccccc3)oc12
6. Cc1ccc(CN2CCCCC(NC(=O)c3cc4ccccc4s3)C2)cc1 (centres undefined)
7. Cc1ccc(F)cc1S(=O)(=O)N1CCCCC(c2ccc(C(F)(F)F)cc2)=N1

A.
1: 5; 2: -3; 3: 3; 4: -9; 5: 0; 6: -1; 7: 7

----------
assay: antimalarial activity against Dd2 strain (AID 2302);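 further: 0% = DMSO untreated growth and 100% = chloroquine plus artemisinin killed control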; conditions: P. falciparum Dd2 in RBCs, LDH growth readout, 72 h; at 2 µM
Activity calls are given as the source filed them.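 Rule for the calls: active = growth inhibition above 50% at the single 2 µM test dose, taken to imply half-maximal potency below 2 µM; inactive = the rest.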
Outcome field: choose from T for active, F for inactive

Observe how each entry below is paired with its result.
| compound | discrete_label |
| --- | --- |
| C[C@@H](C(N)=O)N1CCCCC1c1ccc(OCc2cccc(F)c2)cc1 (stereo not given in full) | T |
| Cc1cc(F)ccc1-c1nc(NCC(O)CNCCc2ccccc2)nc2c1ccc(=O)n2-c1c(F)cccc1F (stereo not given) | T |
| Cc1cc(NC(=O)c2ccco2)ccc1OC1CCN(Cc2ccc(F)cc2)C1 (stereo not given) | T |

Q. I would be grateful if you could indicate the recorded call for CCN(CC)CCN(Cc1ccc(-c2ccc(C(F)(F)F)cc2)cc1)C(=O)Cn1c(SCc2ccc(F)c(F)c2F)nc(=O)c2c1CCC2 .
A. T

Q. I would be grateful if you could indicate the recorded call for CC1CCCN(c2ccc(NC(=O)c3cccs3)cc2[N+](=O)[O-])C1 (stereo not given) .
A. T

Q. I would be grateful if you could indicate the recorded call for O=c1c2c([nH]c3cc(Cl)ccc13)CCCC2 .
A. T

Q. I would be grateful if you could indicate the recorded call for Cc1nc(N)nc(N)c1OCCCCOc1ccccc1 .
A. F

Q. I would be grateful if you could indicate the recorded call for CCOc1ccc(-c2cc3nc(C4CCNCC4)c(C(=O)Nc4ccc(C)cc4Cl)cn3n2)cc1 .
A. F

Q. I would be grateful if you could indicate the recorded call for c1cc(Cc2ccc(Nc3c4ccccc4nc4ccccc34)cc2)cc(Nc2c3ccccc3nc3ccccc23)c1 .
A. T

Q. I would be grateful if you could indicate the recorded call for CCCCCCCCn1c2c(c(=N)c3c1CCC3)CCCC2 .
A. T
